meta.source: paper PMC4636458

test_system: recombinant human ezrin (Homo sapiens, UniProt P15311)
Sequence (P15311 whole entry): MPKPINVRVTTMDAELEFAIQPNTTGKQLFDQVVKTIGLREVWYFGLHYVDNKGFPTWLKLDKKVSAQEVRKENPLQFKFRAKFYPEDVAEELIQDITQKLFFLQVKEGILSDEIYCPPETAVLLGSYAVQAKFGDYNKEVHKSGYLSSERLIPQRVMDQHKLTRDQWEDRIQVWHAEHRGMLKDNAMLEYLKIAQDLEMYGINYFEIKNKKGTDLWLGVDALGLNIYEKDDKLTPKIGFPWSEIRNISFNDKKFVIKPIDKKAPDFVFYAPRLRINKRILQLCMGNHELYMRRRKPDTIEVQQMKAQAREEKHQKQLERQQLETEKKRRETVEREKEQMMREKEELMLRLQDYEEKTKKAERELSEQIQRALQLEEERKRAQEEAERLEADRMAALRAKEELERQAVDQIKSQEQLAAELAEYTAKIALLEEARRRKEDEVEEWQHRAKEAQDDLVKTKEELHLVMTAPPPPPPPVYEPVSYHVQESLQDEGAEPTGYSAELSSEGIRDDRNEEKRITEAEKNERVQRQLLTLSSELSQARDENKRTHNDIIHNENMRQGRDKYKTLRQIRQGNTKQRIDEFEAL
experiment_summary: SPR
Type: binding
test_settings: read-out: KD (μM)^a; HBS-P pH 7.4, 2-10% DMSO, room temperature; n=2
quantity_kind: Kd (µM)
Give the value in µM but do not write µM after it.

Enquiry: Report Kd for CN(N=O)C1=C(NC2CCCCC2)C(=O)c2ccccc2C1=O
Return: 29.4

###

test_system: recombinant human ezrin (Homo sapiens)
experiment_summary: SPR
Assay type: binding
test_settings: read-out: KD (μM)^a; HBS-P pH 7.4, 2-10% DMSO, room temperature; n=3
Could you please report measured Kd for the items listed next?
Give the value in µM but do not write µM after it.

Enquiry: Report Kd for CC1CCN(Cc2ccc(NC(=O)c3cc4ccc5cccnc5c4[nH]3)cc2)CC1
Return: 10.7

Enquiry: Report Kd for CN1CCN(c2ccc(Nc3c4ccccc4nc4ccccc34)cc2)CC1
Return: 6.1
